system: KRAS G12D (Homo sapiens, UniProt P01116+P62937, G12D)
Sequence (P01116 1-169 isoform P01116-2 G12D limits assumed): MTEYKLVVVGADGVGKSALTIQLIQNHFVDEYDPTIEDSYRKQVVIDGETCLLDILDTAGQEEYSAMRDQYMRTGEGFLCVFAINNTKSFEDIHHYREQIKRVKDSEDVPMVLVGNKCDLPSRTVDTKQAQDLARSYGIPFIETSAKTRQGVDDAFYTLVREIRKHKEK
Sequence (P62937 whole entry): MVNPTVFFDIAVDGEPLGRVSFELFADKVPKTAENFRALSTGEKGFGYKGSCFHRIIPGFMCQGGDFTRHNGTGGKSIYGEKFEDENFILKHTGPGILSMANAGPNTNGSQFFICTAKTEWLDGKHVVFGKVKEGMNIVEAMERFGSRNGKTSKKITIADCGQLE
experiment_description: Disruption of BRAF RBD interaction with Ras (FRET / MOA assay, with Cyclophilin A)
Type: biochemical
experimental_parameters: read-out: KRAS G12D FRET data, IC50
pIC50: −log10 of the molar value.

| molecule | pIC50 |
| --- | --- |
| CCn1c(-c2cccnc2[C@H](C)OC)c2c3cc(ccc31)-c1cc(O)cc(c1)C[C@H](NC(=O)[C@H](C(C)C)N(C)C(=O)C1CNC1)C(=O)N1CCC[C@H](N1)C(=O)OCC(C)(C)C2 | 7.00 to 8.00 |
| CCn1c(-c2cnccc2COC)c2c3cc(ccc31)-c1cc(O)cc(c1)C[C@H](NC(=O)[C@H](C(C)C)N(C)C(=O)OC1CNC1)C(=O)N1CCC[C@H](N1)C(=O)OCC(C)(C)C2 | 6.00 to 7.00 |
| C=CC(=O)N1CC[C@H](C(=O)N(C)[C@H](C(=O)N[C@H]2Cc3cc(O)cc(c3)-c3ccc4c(c3)c(c(-c3ccccc3N3CCOCC3)n4CC)CC(C)(C)COC(=O)[C@@H]3CCCN(N3)C2=O)C(C)C)C1 | < 5.00 |
| CCn1c(-c2cccnc2[C@H](C)OC)c2c3cc(ccc31)-c1csc(n1)C[C@H](NC(=O)[C@H](C1CCCC1)N(C)C(=O)N1CCN(C)CC1)C(=O)N1CCC[C@H](N1)C(=O)OCC(C)(C)C2 | 5.00 to 6.00 |
| CCn1c(-c2cccnc2[C@H](C)OC)c2c3cc(ccc31)-c1cc(O)cc(c1)C[C@H](NC(=O)[C@H](C(C)C)N(C)C(=O)C1CCc3ccccc3N1)C(=O)N1CCC[C@H](N1)C(=O)OCC(C)(C)C2 (some centres unmarked) | 5.00 to 6.00 |
| CCn1c(-c2cccnc2[C@H](C)OC)c2c3cc(ccc31)-c1csc(n1)C[C@H](NC(=O)[C@H](CC1CC1)N(C)C(=O)N1CC(OC)C1)C(=O)N1CCC[C@H](N1)C(=O)OCC(C)(C)C2 (atropisomer, axis not shown) | 6.00 to 7.00 |
| CCn1c(-c2cnccc2COC)c2c3cc(ccc31)-c1cc(O)cc(c1)C[C@H](NC(=O)[C@H](C(C)C)N(C)C(=O)[C@H]1CCN(S(=O)(=O)N3CC(N)C3)C1)C(=O)N1CCC[C@H](N1)C(=O)OCC(C)(C)C2 | 5.00 to 6.00 |
| CCn1c(-c2cccnc2[C@H](C)OC)c2c3cc(ccc31)-c1csc(n1)C[C@H](NC(=O)[C@H](C(C)C)N(C)C(=O)N1CC3(CC(N(C)C)C3)C1)C(=O)N1CCC[C@H](N1)C(=O)OCC(C)(C)C2 (atropisomer, axis not shown) | 6.00 to 7.00 |
